# pIC50 measurements, system: CK1ε (Homo sapiens (Human), UniProt P49674)
# Sequence (P49674 whole entry): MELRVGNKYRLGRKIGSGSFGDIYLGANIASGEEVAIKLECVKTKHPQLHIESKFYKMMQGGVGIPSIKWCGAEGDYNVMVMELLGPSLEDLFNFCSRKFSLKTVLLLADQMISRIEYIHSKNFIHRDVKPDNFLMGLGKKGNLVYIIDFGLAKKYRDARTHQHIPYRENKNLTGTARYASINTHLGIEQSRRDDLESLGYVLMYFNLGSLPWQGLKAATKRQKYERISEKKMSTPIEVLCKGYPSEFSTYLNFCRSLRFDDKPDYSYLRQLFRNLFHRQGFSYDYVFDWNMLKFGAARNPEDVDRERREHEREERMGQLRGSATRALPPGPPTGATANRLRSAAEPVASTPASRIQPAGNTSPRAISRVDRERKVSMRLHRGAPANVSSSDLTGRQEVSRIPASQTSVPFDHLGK
Quick note: pIC50 values are minus log10 of concentrations in mol/L.

# query.smiles, tested.target, pIC50
data = [
    ("Cc1ccncc1C(=O)Nc1cn2nc(-c3cn(C)nc3-c3ccc(F)cc3)ccc2n1", "CK1ε (Homo sapiens (Human), UniProt P49674)", 8.19),
]

Input line: Lookup: pIC50 / CK1ε (Homo sapiens (Human), UniProt P49674) / Cn1nc(-c2ccc(F)cc2)c(-c2ccc3nc(NC(=O)c4ccnc(F)c4)cn3n2)c1C1CCN(CCC#N)CC1
Output line: 8.59

Input line: Lookup: pIC50 / CK1ε (Homo sapiens (Human), UniProt P49674) / Cn1cc(-c2ccc3nc(NC(=O)c4csc(-c5ccc(Cl)cc5)n4)cn3n2)c(-c2ccc(F)cc2)n1
Output line: 6.05

Input line: Lookup: pIC50 / CK1ε (Homo sapiens (Human), UniProt P49674) / Cn1nc(-c2ccc(F)cc2)c(-c2ccc3nc(NC(=O)c4ccncc4)cn3n2)c1N1CCN(CCC(F)(F)F)CC1
Output line: 7.63

Input line: Lookup: pIC50 / CK1ε (Homo sapiens (Human), UniProt P49674) / Cn1nc(-c2ccc(F)cc2)c(-c2ccc3nc(NC(=O)c4ccnc(N5CCOCC5)c4)cn3n2)c1C1CCN(CCC(F)(F)F)CC1
Output line: 7.64

Input line: Lookup: pIC50 / CK1ε (Homo sapiens (Human), UniProt P49674) / Cn1nc(-c2ccc(F)cc2)c(-c2ccc3nc(NC(=O)c4ccnc(N5CCOCC5)c4)cn3n2)c1C1CCN(CCCF)CC1
Output line: 7.76

Input line: Lookup: pIC50 / CK1ε (Homo sapiens (Human), UniProt P49674) / Cn1nc(-c2ccc(F)cc2)c(-c2ccc3nc(NC(=O)c4ccnc(F)c4)cn3n2)c1C1CCN(C(=O)c2cncs2)CC1
Output line: 9.52

Input line: Lookup: pIC50 / CK1ε (Homo sapiens (Human), UniProt P49674) / Cn1cc(-c2ccc3nc(NC(=O)C45CCCC(CCC4)C5)cn3n2)c(-c2ccc(F)cc2)n1
Output line: 7.98

Input line: Lookup: pIC50 / CK1ε (Homo sapiens (Human), UniProt P49674) / Cn1cc(-c2ccc3nc(NC(=O)c4cc(Cl)nc5ccccc45)cn3n2)c(-c2ccc(F)cc2)n1
Output line: 7.72

Input line: Lookup: pIC50 / CK1ε (Homo sapiens (Human), UniProt P49674) / Cn1cc(-c2ccc3nc(NC(=O)C45CC6CC(CC(C6)C4)C5)cn3n2)c(-c2ccc(F)cc2)n1
Output line: 8.22

Input line: Lookup: pIC50 / CK1ε (Homo sapiens (Human), UniProt P49674) / O=C(Nc1cn2nc(-c3cn(C4CC4)nc3-c3ccc(F)cc3)ccc2n1)c1ccnc(F)c1
Output line: 7.82

Input line: Lookup: pIC50 / CK1ε (Homo sapiens (Human), UniProt P49674) / Cc1nc(-c2ccncc2)sc1C(=O)Nc1cn2nc(-c3c(-c4ccc(F)cc4)nn(C)c3C3CCN(CCC(F)(F)F)CC3)ccc2n1
Output line: 7.84

Input line: Lookup: pIC50 / CK1ε (Homo sapiens (Human), UniProt P49674) / Cn1nc(-c2ccc(F)cc2)c(-c2ccc3nc(NC(=O)c4ccnc(N5CCOCC5)c4)cn3n2)c1N1CCN(C(=O)c2ccon2)CC1
Output line: 8.00

Input line: Lookup: pIC50 / CK1ε (Homo sapiens (Human), UniProt P49674) / Cn1nc(-c2ccc(F)cc2)c(-c2ccc3nc(NC(=O)c4ccnc(N5CCOCC5)c4)cn3n2)c1C1CCOCC1
Output line: 8.32

Input line: Lookup: pIC50 / CK1ε (Homo sapiens (Human), UniProt P49674) / Cn1cc(-c2ccc3nc(NC(=O)c4cncc(O)c4)cn3n2)c(-c2ccc(F)cc2)n1
Output line: 8.33

----------
Quick reference: pIC50 of the listed items.
# tested.target: CK1ε (Homo sapiens (Human), UniProt P49674)
Quick note: pIC50 values are minus log10 of concentrations in mol/L.

# query.smiles, pIC50
rows = [
    ("Cc1nc(-c2ccncc2)sc1C(=O)Nc1cn2nc(-c3cn(C)nc3-c3ccc(F)cc3)ccc2n1", 7.86),
]

Input line: # get_value(readout='pIC50', item= Cn1cc(-c2ccc3nc(NC(=O)c4cc(F)cc(F)c4)cn3n2)c(-c2ccc(F)cc2)n1 )
Output line: 7.80

Input line: # get_value(readout='pIC50', item= Cc1nc(-c2cccnc2)sc1C(=O)Nc1cn2nc(-c3c(-c4ccc(F)cc4)nn(C)c3C3CCNCC3)ccc2n1 )
Output line: 8.74

Input line: # get_value(readout='pIC50', item= Cn1cc(-c2ccc3nc(NC(=O)c4ccc(CCN5CCCC5)nc4)cn3n2)c(-c2ccc(F)cc2)n1 )
Output line: 7.56

Input line: # get_value(readout='pIC50', item= O=C(Nc1cn2nc(-c3cn(C4CC4)nc3-c3ccc(F)cc3)ccc2n1)c1ccncc1F )
Output line: 7.85

----------
Quick reference: pIC50 of the listed items.
# tested.target: CK1δ (Homo sapiens (Human), UniProt P48730)
# Sequence (P48730 whole entry): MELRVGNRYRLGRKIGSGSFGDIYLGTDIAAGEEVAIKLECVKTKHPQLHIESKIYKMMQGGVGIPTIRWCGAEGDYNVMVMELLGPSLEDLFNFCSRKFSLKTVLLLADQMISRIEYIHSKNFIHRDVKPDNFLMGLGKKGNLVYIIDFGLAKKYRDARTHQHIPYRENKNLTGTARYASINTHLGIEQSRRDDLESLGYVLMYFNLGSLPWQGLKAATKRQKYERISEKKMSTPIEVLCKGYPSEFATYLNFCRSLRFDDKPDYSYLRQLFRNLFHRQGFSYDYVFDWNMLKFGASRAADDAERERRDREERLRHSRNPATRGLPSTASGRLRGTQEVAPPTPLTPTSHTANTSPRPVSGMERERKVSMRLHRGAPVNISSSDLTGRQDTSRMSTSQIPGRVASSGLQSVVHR
# assay.comment: CK1δ kinase assay (Caliper LabChip, fluoresceinated peptide substrate)
# Type: biochemical
# study.conditions: 200 pM CK1δ, 50 μM ATP, 1.5 μM peptide substrate, 22 hours room temperature
Quick note: pIC50 values are minus log10 of concentrations in mol/L.

Input line: # get_value(readout='pIC50', item= Cn1nc(-c2ccc(F)cc2)c(-c2ccc3nc(NC(=O)c4ccnc(N5CCOCC5)c4)cn3n2)c1N1CCN(C(=O)c2ccon2)CC1 )
Output line: 9.00

----------
# pIC50 measurements, system: CK1δ (Homo sapiens (Human))
Quick note: pIC50 values are minus log10 of concentrations in mol/L.

Past entries and their recorded results:
# query.smiles, value.measured
rows = [
    ("Cc1nc(-c2ccncc2)sc1C(=O)Nc1cn2nc(-c3c(-c4ccc(F)cc4)nn(C)c3C3CCNCC3)ccc2n1", 8.85),
    ("Cn1nc(-c2ccc(F)cc2)c(-c2ccc3nc(NC(=O)c4ccncc4)cn3n2)c1C1CCNCC1", 9.05),
    ("O=C(Nc1cn2nc(-c3cn(C4CC4)nc3-c3ccc(F)cc3)ccc2n1)c1cc(F)nc(F)c1", 8.32),
    ("Cc1nc(-c2ccncc2)sc1C(=O)Nc1cn2nc(-c3c(-c4ccc(F)cc4)nn(C)c3C3CCN(Cc4ccon4)CC3)ccc2n1", 8.77),
    ("Cn1cc(-c2ccc3nc(NC(=O)c4cc(C(C)(C)C)ncn4)cn3n2)c(-c2ccc(F)cc2)n1", 8.00),
    ("Cn1cc(-c2ccc3nc(NC(=O)c4ccc(CN5CCCC5)cc4)cn3n2)c(-c2ccc(F)cc2)n1", 8.24),
    ("Cn1cc(-c2ccc3nc(NC(=O)c4csc(-c5ccc(Cl)cc5)n4)cn3n2)c(-c2ccc(F)cc2)n1", 7.61),
]

Then there is this compound:
Input line: # get_value(readout='pIC50', item= COc1cccc(C(=O)Nc2cn3nc(-c4cn(C)nc4-c4ccc(F)cc4)ccc3n2)n1 )
Output line: 7.85

----------
# tested.target: CK1ε (Homo sapiens (Human), UniProt P49674)
Quick reference: IC50 of the listed items.
Numeric answer only, unit µM assumed.

Past entries and their recorded results:
# query.smiles, tested.target, IC50 / µM
records = [
    ("Cn1cc(-c2ccc3nc(NC(=O)C4CC4)cn3n2)c(-c2ccc(F)cc2)n1", "CK1ε (Homo sapiens (Human), UniProt P49674)", 0.0501),
    ("Cn1cc(-c2ccc3nc(NC(=O)c4cnn(C)c4Cl)cn3n2)c(-c2ccc(F)cc2)n1", "CK1ε (Homo sapiens (Human), UniProt P49674)", 0.0131),
    ("Cn1nc(-c2ccc(F)cc2)c(-c2ccc3nc(NC(=O)c4ccncc4)cn3n2)c1C1CCN(Cc2cocn2)CC1", "CK1ε (Homo sapiens (Human), UniProt P49674)", 0.0104),
    ("Cn1cc(-c2ccc3nc(NC(=O)c4ncc(-c5ccccn5)s4)cn3n2)c(-c2ccc(F)cc2)n1", "CK1ε (Homo sapiens (Human), UniProt P49674)", 0.0715),
    ("Cn1nc(-c2ccc(F)cc2)c(-c2ccc3nc(NC(=O)c4ccnc(F)c4)cn3n2)c1C1CCN(C(=O)CC(F)(F)F)CC1", "CK1ε (Homo sapiens (Human), UniProt P49674)", 0.0057),
]

Input line: Lookup: IC50 / CK1ε (Homo sapiens (Human), UniProt P49674) / Cn1nc(-c2ccc(F)cc2)c(-c2ccc3nc(NC(=O)c4ccnc(F)c4)cn3n2)c1C1CCOCC1
Output line: 0.002

Input line: Lookup: IC50 / CK1ε (Homo sapiens (Human), UniProt P49674) / Cn1cc(-c2ccc3nc(NC(=O)c4cc(F)cc(C#N)c4)cn3n2)c(-c2ccc(F)cc2)n1
Output line: 0.0223

Input line: Lookup: IC50 / CK1ε (Homo sapiens (Human), UniProt P49674) / Cn1cc(-c2ccc3nc(NC(=O)C45CC6CC(C)(CC(C)(C6)C4)C5)cn3n2)c(-c2ccc(F)cc2)n1
Output line: 0.0344

Values from patent US9475817B2
